pKd reference
# Target desc: T1, human ADAMTS5 (human, UniProt Q9UNA0 262-622, limits assumed)
# T1 construct: Octet and ELISA used 'recombinant human ADAMTS5'; also called recombinant human ADAMTS5; ADAMTS5 (R&D Systems 2198-AD)
# T1 sequence: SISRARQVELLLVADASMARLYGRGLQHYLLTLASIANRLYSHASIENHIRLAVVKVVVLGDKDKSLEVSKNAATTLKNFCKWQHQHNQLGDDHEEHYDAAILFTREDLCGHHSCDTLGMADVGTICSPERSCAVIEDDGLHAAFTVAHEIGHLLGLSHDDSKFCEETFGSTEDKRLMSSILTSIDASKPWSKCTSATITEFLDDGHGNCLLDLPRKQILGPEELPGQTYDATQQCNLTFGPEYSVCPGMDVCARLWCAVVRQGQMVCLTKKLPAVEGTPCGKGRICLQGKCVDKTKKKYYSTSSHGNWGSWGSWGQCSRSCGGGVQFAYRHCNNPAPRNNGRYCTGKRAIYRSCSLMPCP
# Protocol description: Biacore, mAb from culture supernatant captured on anti-human IgG, ADAMTS5 (R&D 2198-AD) at 64 nM, 1:1 fit
Interpret pKd as the negative base-10 log of the concentration measured in mol/L.

Use the examples below as a reference point.
What pKd value was documented for this binder, BPC1623 (antibody, human IgG1, kappa, V domains shown, Chimeric: murine variable domains on human gamma 1 and kappa constant regions; also called 12F4 Chimera; Chimeric 12F4.1H7) VH: EVKLEESGGGLVQPGGSMKLSCTASGFTFSDAWMDWVRQSPEKGLEWVAEIRHKANDHAIFYDESVKGRFTISRDDSKNIVYLQMNSLRPEDTGIYYCTSPFAYWGQGTLVTVSS VL: DIVMTQSQKFMSVTVGDRVSITCKASQSVGTTIVWYQQKPGQSPKLLIYSASNRHTGVPDRFTGSGSGTDFILTINNVQSEDLADYFCQQYTSYPFTFGSGTKLEIKR ?
10.11

Reported pKd, binder BPC1649 (antibody, human IgG1, kappa, V domains shown, Humanized, human gamma 1 / kappa; also called 7B4 H1L2) VH: EVQLVESGGGLVQPGGSLRLSCAASGFTFSDAWMDWVRQAPGKGLEWVAEIRNKANNHARHYAESVKGRFTISRDNAKNSLYLQMNSLRAEDTAVYYCTRTYYYGSSYGYCDVWGQGTLVTVSS VL: DIQMTQSPSSLSASVGDRVTITCRTSENIYSYLAWYQQKPGKAPQLLVYNAKTLAEGVPSRFSGSGSGTDFTLTISSLQPEDFATYYCQHHYGTPWTFGQGTKLEIKR : ____
8.90

Consider the binder shown here: BPC1648 (antibody, human IgG1, kappa, V domains shown, Humanized, human gamma 1 / kappa; also called 7B4 H0L2) VH: EVQLVESGGGLVQPGGSLRLSCAASGFTFSDAWMDWVRQAPGKGLEWVAEIRNKANNHARHYAESVKGRFTISRDNAKNSLYLQMNSLRAEDTAVYYCARTYYYGSSYGYCDVWGQGTLVTVSS VL: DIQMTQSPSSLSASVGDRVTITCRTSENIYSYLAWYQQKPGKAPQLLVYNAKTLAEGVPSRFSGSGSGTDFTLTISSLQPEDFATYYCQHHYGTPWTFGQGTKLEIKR What is its recorded pKd?
8.92

Need pKd, item BPC1653 (antibody, human IgG1, kappa, V domains shown, Humanized, human gamma 1 / kappa; also called 7B4 H5L2) VH: EVQLVESGGGLVQPGGSLRLSCAASGFTSSDAWMDWVRQAPGKGLEWVAEIRNKANNHARHYAESVKGRFTISRDNAKNSVYLQMNSLRAEDTAVYYCTRTYYYGSSYGYCDVWGQGTLVTVSS VL: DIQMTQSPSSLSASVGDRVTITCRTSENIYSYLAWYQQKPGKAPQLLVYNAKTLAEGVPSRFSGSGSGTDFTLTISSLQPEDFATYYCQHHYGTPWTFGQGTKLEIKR
8.94

Next binder, pKd to be filled in.
I'd like to know its pKd. The binder in question is BPC1637 (antibody, human IgG1, kappa, V domains shown, Humanized, human gamma 1 / kappa; also called 7B4 H3L0) VH: EVQLVESGGGLVQPGGSLRLSCAASGFTSSDAWMDWVRQAPGKGLEWVAEIRNKANNHARHYAESVKGRFTISRDNAKNSLYLQMNSLRAEDTAVYYCTRTYYYGSSYGYCDVWGQGTLVTVSS VL: DIQMTQSPSSLSASVGDRVTITCRTSENIYSYLAWYQQKPGKAPKLLIYNAKTLAEGVPSRFSGSGSGTDFTLTISSLQPEDFATYYCQHHYGTPWTFGQGTKLEIKR
9.07
